A set of compounds tested on ERRβ (Homo sapiens, UniProt O95718), with measured IC50:
RESULT_TYPE: IC50 (µM)

compound="OCCC/C(=C(\\c1ccc(O)cc1)c1ccc(C2CCN(C3CC3)C2)cc1)c1ccccc1 (centres unmarked) [Compound 22t]" result_type=IC50 inequality_sign== endpoint_value=3.56
compound="CC(C)N1CCC(c2ccc(/C(=C(/CCCO)c3ccccc3)c3cccc(O)c3)cc2)CC1 [Compound 22m]" result_type=IC50 inequality_sign== endpoint_value=7.82
compound="OCCC/C(=C(\\c1ccc(O)cc1)c1ccc(OCCN2CCC[C@@H]2CO)cc1)c1ccccc1 [Compound 38c]" result_type=IC50 inequality_sign=> endpoint_value=10
compound="OCCC/C(=C(\\c1ccc(O)cc1)c1ccc(OCCN2CC3CC3C2)cc1)c1ccccc1 (centres unmarked) [Compound 38a]" result_type=IC50 inequality_sign== endpoint_value=8.13
compound="OCCC/C(=C(\\c1ccc(O)cc1)c1ccc(OCCN2C[C@H]3C[C@H]3[C@H]2CO)cc1)c1ccccc1 [Compound 38d]" result_type=IC50 inequality_sign== endpoint_value=8.8
compound="Cc1ccc(/C(=C(\\CCCO)c2ccccc2)c2ccc(N3CCNCC3)cc2)cc1 [Compound 20b]" result_type=IC50 inequality_sign== endpoint_value=2.1
compound="OCCC/C(=C(\\c1ccc(O)cc1)c1ccc(N2CCNCC2)cc1)c1ccccc1 [Compound 20j]" result_type=IC50 inequality_sign== endpoint_value=4.93
compound="CC(C)(C)OC(=O)N1CCN(c2ccc(/C(=C(/CCCO)c3ccccc3)c3ccc(Br)cc3)cc2)CC1 [Compound 18n]" result_type=IC50 inequality_sign== endpoint_value=1.09

###

target: GST-bound ERR gamma ligand-binding domain (LBD) (Homo sapiens (Human)); test: ERRγ binding assay (inverse agonist assay), TR-FRET; conditions: TR-FRET, PGC1a coactivator; read-out: Binding Assay, IC50 ERRγ
Sequence (P62508 233-457): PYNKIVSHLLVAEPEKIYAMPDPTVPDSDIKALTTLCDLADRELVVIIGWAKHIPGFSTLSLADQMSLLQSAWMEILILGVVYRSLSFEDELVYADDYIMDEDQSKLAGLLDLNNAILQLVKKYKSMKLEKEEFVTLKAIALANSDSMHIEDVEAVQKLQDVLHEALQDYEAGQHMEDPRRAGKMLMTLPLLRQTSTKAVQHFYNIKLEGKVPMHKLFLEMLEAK
pIC50: −log10 of the molar value.
RESULT_TYPE: pIC50

compound="CN1CCCC1CCOc1ccc(/C(=C(/CCCO)c2ccccc2)c2ccc(O)cc2)cc1 (centres unmarked) [Compound 6g]" assay_target="GST-bound ERR gamma ligand-binding domain (LBD) (Homo sapiens (Human))" result_type=pIC50 endpoint_value=7.52
compound="OCCC/C(=C(\\c1ccc(O)cc1)c1ccc(OCCN2CCCC2)cc1)c1ccccc1 [Compound 6e]" assay_target="GST-bound ERR gamma ligand-binding domain (LBD) (Homo sapiens (Human))" result_type=pIC50 endpoint_value=7.17
compound="OCCC/C(=C(\\c1ccc(O)cc1)c1ccc(N2CCN(C3CCCCC3)CC2)cc1)c1ccccc1 [Compound 22p]" assay_target="GST-bound ERR gamma ligand-binding domain (LBD) (Homo sapiens (Human))" result_type=pIC50 endpoint_value=7.00
compound="CC(C)N1CCN(c2ccc(/C(=C(/CCCO)c3ccccc3)c3ccc(Br)cc3)cc2)CC1 [Compound 18h]" assay_target="GST-bound ERR gamma ligand-binding domain (LBD) (Homo sapiens (Human))" result_type=pIC50 endpoint_value=7.49
compound="OCCC/C(=C(\\c1ccc(O)cc1)c1ccc(OCCN2C[C@H]3C[C@H]3[C@H]2CO)cc1)c1ccccc1 [Compound 38d]" assay_target="GST-bound ERR gamma ligand-binding domain (LBD) (Homo sapiens (Human))" result_type=pIC50 endpoint_value=7.08
compound="OCCC/C(=C(\\c1ccc(O)cc1)c1ccc(OCCN2CC3CC3C2)cc1)c1ccccc1 (centres unmarked) [Compound 38a]" assay_target="GST-bound ERR gamma ligand-binding domain (LBD) (Homo sapiens (Human))" result_type=pIC50 endpoint_value=7.10
compound="CN1CCC[C@H]1COc1ccc(/C(=C(/CCCO)c2ccccc2)c2ccc(Br)cc2)cc1 [Compound 13b]" assay_target="GST-bound ERR gamma ligand-binding domain (LBD) (Homo sapiens (Human))" result_type=pIC50 endpoint_value=7.19
compound="CCN1CCN(c2ccc(/C(=C(/CCCO)c3ccccc3)c3ccc(O)cc3)cc2)CC1 [Compound 18i]" assay_target="GST-bound ERR gamma ligand-binding domain (LBD) (Homo sapiens (Human))" result_type=pIC50 endpoint_value=7.30
compound="OCCC/C(=C(\\c1ccc(O)cc1)c1ccc(OCCN2CCCCC2)cc1)c1ccccc1 [Compound 6d]" assay_target="GST-bound ERR gamma ligand-binding domain (LBD) (Homo sapiens (Human))" result_type=pIC50 endpoint_value=7.03
compound="OCCC/C(=C(\\c1ccc(O)cc1)c1ccc(OCCN2CC2)cc1)c1ccccc1 [Compound 6f]" assay_target="GST-bound ERR gamma ligand-binding domain (LBD) (Homo sapiens (Human))" result_type=pIC50 endpoint_value=7.23
compound="CN1CCC[C@@H]1CCOc1ccc(/C(=C(/CCCO)c2ccccc2)c2ccc(O)cc2)cc1 [Compound 6k]" assay_target="GST-bound ERR gamma ligand-binding domain (LBD) (Homo sapiens (Human))" result_type=pIC50 endpoint_value=7.59
